Target: Grb2 SH2 (UniProt P62993)
Sequence (P62993 whole entry, looked up): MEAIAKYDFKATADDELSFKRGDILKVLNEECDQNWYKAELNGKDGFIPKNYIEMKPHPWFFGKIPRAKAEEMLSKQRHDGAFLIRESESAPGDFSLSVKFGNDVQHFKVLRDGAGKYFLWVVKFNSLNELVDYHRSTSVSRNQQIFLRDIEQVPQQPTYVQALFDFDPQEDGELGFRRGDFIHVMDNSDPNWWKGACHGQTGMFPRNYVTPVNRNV
Assay: SH2 binding enrichment of the phosphorylated peptide, bacterial display (enrichment ratio); higher = better substrate or ligand; peptides without Tyr show the background
reportedEndpoint: SH2 binding enrichment
API doc: respond with a numeric literal and nothing else, no unit.

Worked cases, SH2 binding enrichment given:
Enquiry: Tell me the measured SH2 binding enrichment of QLHREYCLSPR [HJURP_Y445] , please.
Return: 1.09

Enquiry: What about this sequence? RIVEIYSRRLQ [GCH1_Y175]
Return: 0.789

Enquiry: What about this sequence? NVVVPYEPPEV [TP53_Y220_S215N]
Return: 0.757

Enquiry: What about this sequence? FGGLRCGFGVL [KRTAP20-2_Y13_Y13C_YF]
Return: 0.69

Enquiry: What about this sequence? LANNEYFFRVC
Return: 1.05

Enquiry: What about this sequence? FENGEYIIRQG [PRKG1_Y247_YF]
Return: 0.908

Enquiry: What about this sequence? RLNAIYQNNLT [GSR_Y158]
Return: 5.31

Enquiry: What about this sequence? RQGQAYRGQRV [TSHR_Y706_A703G]
Return: 0.552

Enquiry: What about this sequence? VDTGVYAVPPP [BCAR1_Y410_S407T]
Return: 0.775

Enquiry: What about this sequence? RFLRGYRQDAF [HLA-A_Y137_YF]
Return: 1

New cases:
Enquiry: Tell me the measured SH2 binding enrichment of MSRNLYSGDCY [DDR2_Y736_Y740C] , please.
Return: 0.796

Enquiry: What about this sequence? FLEKFYKFGSR [NNMT_Y25_YF]
Return: 0.883

----------
Target: Fes (UniProt P07332)
Sequence (P07332 whole entry, looked up): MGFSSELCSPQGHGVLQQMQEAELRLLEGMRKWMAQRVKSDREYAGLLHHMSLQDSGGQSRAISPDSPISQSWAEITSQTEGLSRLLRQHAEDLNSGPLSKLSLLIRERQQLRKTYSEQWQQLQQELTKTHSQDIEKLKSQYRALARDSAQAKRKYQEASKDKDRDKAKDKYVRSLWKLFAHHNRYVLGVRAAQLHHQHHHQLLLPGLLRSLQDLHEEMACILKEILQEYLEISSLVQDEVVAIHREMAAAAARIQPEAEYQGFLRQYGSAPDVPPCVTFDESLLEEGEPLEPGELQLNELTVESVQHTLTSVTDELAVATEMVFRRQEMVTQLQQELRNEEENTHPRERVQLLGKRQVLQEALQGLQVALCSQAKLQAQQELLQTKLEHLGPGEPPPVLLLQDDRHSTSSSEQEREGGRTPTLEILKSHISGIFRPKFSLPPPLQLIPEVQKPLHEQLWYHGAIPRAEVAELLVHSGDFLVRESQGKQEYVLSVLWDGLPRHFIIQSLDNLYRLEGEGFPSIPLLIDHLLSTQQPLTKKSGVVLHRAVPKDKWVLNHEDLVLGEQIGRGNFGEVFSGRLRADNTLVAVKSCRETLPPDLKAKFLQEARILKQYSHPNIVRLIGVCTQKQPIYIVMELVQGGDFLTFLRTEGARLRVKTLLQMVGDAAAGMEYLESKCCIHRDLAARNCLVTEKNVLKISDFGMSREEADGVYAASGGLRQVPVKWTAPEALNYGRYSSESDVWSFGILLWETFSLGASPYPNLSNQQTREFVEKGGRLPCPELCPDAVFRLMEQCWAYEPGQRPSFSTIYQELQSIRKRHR
Test: phosphorylation enrichment, bacterial display (enrichment ratio); higher = better substrate or ligand; peptides without Tyr show the background
// reported phosphorylation enrichment for each item listed

Enquiry: Tell me the measured phosphorylation enrichment of QELRRYLKSGV [MICA_Y194] , please.
Return: 0.787

Enquiry: What about this sequence? ALTRSYVREKV [CYP2C8_Y243_I244V]
Return: 0.532

New cases:
Enquiry: Tell me the measured phosphorylation enrichment of EILLSYPRTGF [TGM1_Y365_L366P_YF] , please.
Return: 0.935

Enquiry: What about this sequence? FEPDAYDDLDQ [ELP5_Y302_YF]
Return: 1.3

Enquiry: What about this sequence? TEQDPYNSIVR [MMUT_Y364_N366S]
Return: 1.01

Enquiry: What about this sequence? VSFDEYRFRSF [CFTR_Y515_V520F_YF]
Return: 1.12

Enquiry: What about this sequence? QEIATYRRLQE [KRT14_Y415_L419Q]
Return: 0.803

----------
Biological target: SHP2-C SH2
Test: SH2 binding enrichment of the phosphorylated peptide, bacterial display (enrichment ratio); higher = better substrate or ligand; peptides without Tyr show the background
Output: class label from SH2 binding enrichment. Mapping: category 1 = under 0.7, category 2 = from 0.7 up to 0.9, category 3 = 0.9 and over

Enquiry: Which bin should I file EQMLEYMGQLQ [CFAP45_Y289_E291G] under?
Return: category 1

Enquiry: What about this sequence? KRISCYEASFQ [PFKFB3_Y194_YF]
Return: category 1

Enquiry: What about this sequence? HRERPYGGGGG [FUS_Y526_R521H]
Return: category 3

Enquiry: What about this sequence? RLQAAYNLVKR [PFKM_Y103_R100Q]
Return: category 3

Enquiry: What about this sequence? AHAGEHGAEAL [HBA1_Y25_Y25H]
Return: category 2

----------
Molecular target: EPHB1 (UniProt P54762)
Sequence (P54762 whole entry, looked up): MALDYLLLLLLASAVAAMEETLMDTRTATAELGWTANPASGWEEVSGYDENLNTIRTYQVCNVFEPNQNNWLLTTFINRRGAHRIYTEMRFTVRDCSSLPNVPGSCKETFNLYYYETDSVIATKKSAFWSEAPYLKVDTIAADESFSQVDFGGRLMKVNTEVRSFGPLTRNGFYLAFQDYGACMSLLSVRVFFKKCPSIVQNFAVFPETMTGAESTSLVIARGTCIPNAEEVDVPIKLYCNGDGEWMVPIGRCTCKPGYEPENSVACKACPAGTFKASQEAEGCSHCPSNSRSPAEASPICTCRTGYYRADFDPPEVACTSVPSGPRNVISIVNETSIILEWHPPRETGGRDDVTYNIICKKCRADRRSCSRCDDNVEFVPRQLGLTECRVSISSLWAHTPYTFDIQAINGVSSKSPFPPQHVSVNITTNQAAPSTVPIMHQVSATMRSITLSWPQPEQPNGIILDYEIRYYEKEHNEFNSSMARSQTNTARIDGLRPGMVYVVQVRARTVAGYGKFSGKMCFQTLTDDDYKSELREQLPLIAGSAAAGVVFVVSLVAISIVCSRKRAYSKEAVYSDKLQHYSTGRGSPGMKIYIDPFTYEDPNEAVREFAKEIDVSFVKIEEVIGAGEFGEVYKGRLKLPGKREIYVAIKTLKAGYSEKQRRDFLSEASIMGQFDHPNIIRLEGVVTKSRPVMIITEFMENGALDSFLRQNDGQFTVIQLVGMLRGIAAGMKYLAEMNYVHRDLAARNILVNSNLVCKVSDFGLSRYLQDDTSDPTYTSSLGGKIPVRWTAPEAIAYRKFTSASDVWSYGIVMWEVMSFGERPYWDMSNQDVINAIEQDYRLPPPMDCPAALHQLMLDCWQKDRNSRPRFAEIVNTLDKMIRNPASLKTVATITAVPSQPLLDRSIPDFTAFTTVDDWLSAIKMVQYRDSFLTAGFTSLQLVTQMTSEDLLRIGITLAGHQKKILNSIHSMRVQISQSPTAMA
Assay: phosphorylation enrichment, bacterial display (enrichment ratio); higher = better substrate or ligand; peptides without Tyr show the background
Binary classification by phosphorylation enrichment, with 0.5 as an inclusive lower bound for true; all other cases are false.

The examples below pair each entry with its known result.
Enquiry: I'd appreciate it if you could say whether GAEIVYKSPVV [MAPT_Y711] has phosphorylation enrichment at least equal to 0.5.
Return: true

Enquiry: What about this sequence? LTDLRYKVSGP
Return: true

Enquiry: What about this sequence? FTGDIYSNSNL [LZTR1_Y141_YF]
Return: true

Enquiry: What about this sequence? IIGNGYYFRVF [MYBPC3_Y1135]
Return: true

Enquiry: What about this sequence? FQCLRYIKQLG [SAMHD1_Y146_R143C]
Return: false

Kindly consider the entry below.
Enquiry: I'd appreciate it if you could say whether AHPGEYGAEAL [HBA1_Y25_A22P] has phosphorylation enrichment at least equal to 0.5.
Return: true

----------
// reported phosphorylation enrichment for each item listed
Tested on: Fer (mouse)
Assay: phosphorylation enrichment, bacterial display (enrichment ratio); higher = better substrate or ligand; peptides without Tyr show the background
API doc: respond with a numeric literal and nothing else, no unit.

Enquiry: Tell me the measured phosphorylation enrichment of HNMPIYEGFAL [ACTA1_Y168_V165M_YF] , please.
Return: 26.7

Enquiry: What about this sequence? TKVVHYRKWIK [KLK2_Y249]
Return: 0.373

Enquiry: What about this sequence? LQTFRYHGLSM [PDHA1_Y289_H292L_YF]
Return: 1.27

Enquiry: What about this sequence? MGRVNYGAYIN [GLB1_Y485]
Return: 0.34

Enquiry: What about this sequence? TDTAAYEERLR [SPTB_Y474_V478L]
Return: 0.458

New cases:
Enquiry: Tell me the measured phosphorylation enrichment of RLAKRYLIWEC [SCN5A_Y694_Q692K] , please.
Return: 0.626

Enquiry: What about this sequence? EFQLPYFNMVP [BMPR1A_Y457_YF]
Return: 0.348

----------
// reported phosphorylation enrichment for each item listed
Target: MERTK (UniProt Q12866)
Sequence (Q12866 whole entry, looked up): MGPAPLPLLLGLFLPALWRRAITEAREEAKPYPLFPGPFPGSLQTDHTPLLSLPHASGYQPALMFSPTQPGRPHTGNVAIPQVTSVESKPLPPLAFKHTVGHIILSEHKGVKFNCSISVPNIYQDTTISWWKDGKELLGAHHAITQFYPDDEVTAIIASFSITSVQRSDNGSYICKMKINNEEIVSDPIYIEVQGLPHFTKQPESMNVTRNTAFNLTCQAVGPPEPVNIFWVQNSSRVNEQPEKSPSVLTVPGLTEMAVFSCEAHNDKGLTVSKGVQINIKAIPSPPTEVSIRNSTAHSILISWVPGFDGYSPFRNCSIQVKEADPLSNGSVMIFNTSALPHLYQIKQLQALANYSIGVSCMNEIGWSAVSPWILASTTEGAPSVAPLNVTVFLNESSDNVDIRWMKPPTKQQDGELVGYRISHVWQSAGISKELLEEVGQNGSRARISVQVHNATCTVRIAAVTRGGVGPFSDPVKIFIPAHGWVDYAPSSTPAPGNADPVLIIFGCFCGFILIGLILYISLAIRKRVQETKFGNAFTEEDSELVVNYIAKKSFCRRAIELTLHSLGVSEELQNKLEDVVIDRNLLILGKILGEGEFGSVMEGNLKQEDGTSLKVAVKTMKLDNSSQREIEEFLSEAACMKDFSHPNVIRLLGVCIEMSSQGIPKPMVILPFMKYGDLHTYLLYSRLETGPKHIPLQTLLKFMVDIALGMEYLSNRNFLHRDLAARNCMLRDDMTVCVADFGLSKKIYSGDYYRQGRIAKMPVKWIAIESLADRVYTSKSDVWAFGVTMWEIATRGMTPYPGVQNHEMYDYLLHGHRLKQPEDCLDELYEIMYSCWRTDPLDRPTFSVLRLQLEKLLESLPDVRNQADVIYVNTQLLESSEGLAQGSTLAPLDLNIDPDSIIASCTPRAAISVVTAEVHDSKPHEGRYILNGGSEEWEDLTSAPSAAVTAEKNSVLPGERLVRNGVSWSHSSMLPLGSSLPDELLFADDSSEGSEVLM
Experiment: phosphorylation enrichment, bacterial display (enrichment ratio); higher = better substrate or ligand; peptides without Tyr show the background
API doc: respond with a numeric literal and nothing else, no unit.

Worked cases, phosphorylation enrichment given:
Enquiry: Tell me the measured phosphorylation enrichment of KGNMFYENSFA [EGFR_Y113_R108K_YF] , please.
Return: 0.484

Enquiry: What about this sequence? IVAREYFSEAD [CAMK2A_Y106_YF]
Return: 0.472

Enquiry: What about this sequence? SVMVPYEPPEV [TP53_Y220_V217M]
Return: 0.433

Enquiry: What about this sequence? EFFENYIEELK [PARP4_Y218_F215Y_YF]
Return: 0.425

Enquiry: What about this sequence? AERKLYRNVML [ZNF569_Y33_Q29E]
Return: 0.383

Enquiry: What about this sequence? AGIENYTSRFG [NKD2_Y256]
Return: 0.418

Enquiry: What about this sequence? SEEVTYATLTF [CLEC12B_Y7]
Return: 2.18

Enquiry: What about this sequence? ISTAGYSFPEL [EDAR_Y406_I408F]
Return: 0.698

Enquiry: What about this sequence? HRERPYGGGGG [FUS_Y526_R521H]
Return: 0.557

Enquiry: What about this sequence? GGQVFHNSEYG [FLT4_Y1333_Y1333H]
Return: 0.314

New cases:
Enquiry: Tell me the measured phosphorylation enrichment of VDDEIYFFRKP [PBRM1_Y1289_YF] , please.
Return: 0.796

Enquiry: What about this sequence? RWHEGYRQTPR [CD44_Y412_K417R]
Return: 0.539

Enquiry: What about this sequence? SIKDKHVTALF [KCNH2_Y611_Y611H_YF]
Return: 0.469

----------
Tested on: c-Src
Assay: phosphorylation enrichment, bacterial display (enrichment ratio); higher = better substrate or ligand; peptides without Tyr show the background
reportedEndpoint: phosphorylation enrichment
API doc: respond with a numeric literal and nothing else, no unit.

Worked cases, phosphorylation enrichment given:
Enquiry: Tell me the measured phosphorylation enrichment of TLSGIYQYNIA [FOXL2_Y81_I84N] , please.
Return: 6.54

Enquiry: What about this sequence? HKLSYCEYDFE [BTK_Y40_Y40C]
Return: 2.46

Enquiry: What about this sequence? TTICKYSTPME [GUCY2C_Y839]
Return: 0.474

Enquiry: What about this sequence? DGTVHYVDEKG [IFT140_Y216]
Return: 0.376

Enquiry: What about this sequence? HHTDECEFDEL [TGM1_Y134_Y134C_YF]
Return: 0.727

New cases:
Enquiry: Tell me the measured phosphorylation enrichment of SECCKYKIDNL [OSMR_Y689_P694L] , please.
Return: 0.436

Enquiry: What about this sequence? MSSHHCDYKKY [ZNF445_Y428_Y428C]
Return: 0.452

Enquiry: What about this sequence? CVRTIYTIDGS [DCLK2_Y124_G119C]
Return: 1.97

Enquiry: What about this sequence? GSERRYSREGG [PTPRN2_Y139]
Return: 0.463

Enquiry: What about this sequence? MGGSLYFSFPD [HIKESHI_Y55_V54L_YF]
Return: 5.75

Enquiry: What about this sequence? ADRNHYRRYPR [YBX1_Y145]
Return: 0.515
